test system: SKVLB; test: Microculture tetrazolium assay; assay type: cell-based; details: IC50 ratio SKVLB/SKOV3
Structures can show the parent of a compound that is named as a salt.
Rule: VLB/OV3 below 2 gives true. Equal to or above 2 gives false.

Ask: is_below(VLB/OV3, 2) for CC(=O)[C@@H]1CC2=C(C(=O)c3c(cc4ccccc4c3O)C2=O)[C@@H](O)O1 (relative stereo) ?
Result: false

Ask: is_below(VLB/OV3, 2) for C[C@@H]1O[C@@H](OC2OC(C#N)Cc3c(O)c4c(c(O)c32)C(=O)c2ccccc2C4=O)C[C@H](N)[C@@H]1O (mixture of isomers) ?
Result: false

Ask: is_below(VLB/OV3, 2) for CCOC(=O)C1CC2=C(CO1)C(=O)c1c(cc3ccccc3c1OC(C)=O)C2=O (stereo not shown) ?
Result: true

Ask: is_below(VLB/OV3, 2) for CC(=O)C1CC2=C(CS1)C(=O)c1cc3ccccc3c(O)c1C2=O (stereo not shown) ?
Result: true

Ask: is_below(VLB/OV3, 2) for CC(=O)[C@@H]1Cc2c(O)c3c(c(O)c2[C@@H](O[C@H]2C[C@H](N)[C@H](O)[C@H](C)O2)O1)C(=O)c1ccccc1C3=O [BCH-1194, hydrochloride] ?
Result: false

Ask: is_below(VLB/OV3, 2) for CC(=O)OCC1(C2CC3=C(C(=O)c4cc5ccccc5c(OC(C)=O)c4C3=O)C(O)O2)OCCCO1 (stereo not shown) ?
Result: true

Ask: is_below(VLB/OV3, 2) for COCC1Cc2c(O)c3c(c(O)c2C(O[C@H]2C[C@H](N)[C@H](O)[C@H](C)O2)O1)C(=O)c1ccccc1C3=O (mixture of isomers) [BCH-1992, hydrochloride] ?
Result: false

Ask: is_below(VLB/OV3, 2) for COCC1(COC)CC2=C(C(=O)c3cc4ccccc4c(O)c3C2=O)[C@H](O[C@H]2C[C@H](NC(=O)C(F)(F)F)[C@H](O)[C@H](C)O2)O1 ?
Result: false

Ask: is_below(VLB/OV3, 2) for CC(N)C1Cc2c(O)c3c(c(O)c2C(O[C@H]2C[C@H](O)[C@H](O)[C@H](C)O2)O1)C(=O)c1ccccc1C3=O (stereo partly shown) [BCH-1683, hydrochloride] ?
Result: false

Ask: is_below(VLB/OV3, 2) for C[C@@H]1O[C@@H](O[C@@H]2O[C@@H](C3(CO)OCCCO3)CC3=C2C(=O)c2cc4ccccc4c(O)c2C3=O)C[C@H](N)[C@@H]1O ?
Result: false

Ask: is_below(VLB/OV3, 2) for CC(=O)OCC1(C2CC3=C(C(=O)c4c(cc5ccccc5c4O)C3=O)C(O[C@H]3C[C@H](NC(=O)C(F)(F)F)[C@H](O)[C@H](C)O3)O2)OCCCO1 (stereo partly shown) ?
Result: true

Ask: is_below(VLB/OV3, 2) for C[C@@H]1O[C@@H](O[C@H]2O[C@H](C(C)(F)F)CC3=C2C(=O)c2cc4ccccc4c(O)c2C3=O)C[C@H](O)[C@@H]1O (mixture of isomers) ?
Result: true

Ask: is_below(VLB/OV3, 2) for CC(=O)[C@@H]1CC2=C(C(=O)c3cc4ccccc4c(O)c3C2=O)[C@H](OC[C@@H]2COC(C)(C)O2)S1 ?
Result: false

Ask: is_below(VLB/OV3, 2) for C[C@@H]1O[C@@H](O[C@H]2O[C@H](C3(CO)OCCCO3)CC3=C2C(=O)c2cc4ccccc4c(O)c2C3=O)C[C@H](N)[C@@H]1O ?
Result: false

Ask: is_below(VLB/OV3, 2) for CC[C@@H]1CC2=C(C(=O)c3cc4ccccc4c(O)c3C2=O)[C@@H](O[C@H]2C[C@H](N)[C@H](O)[C@H](C)O2)O1 [BCH-1614, hydrochloride] ?
Result: true

Ask: is_below(VLB/OV3, 2) for CC(=O)C1CC2=C(C(=O)c3cc4ccccc4c(O)c3C2=O)C(OC[C@H](O)CO)S1 (stereo partly shown) ?
Result: true

Ask: is_below(VLB/OV3, 2) for CC(=O)C1CC2=C(C(=O)c3cc4ccccc4c(O)c3C2=O)C(O[C@H]2C[C@H](NC(=O)C(F)(F)F)[C@H](O)[C@H](C)O2)S1 (stereo partly shown) ?
Result: true

Ask: is_below(VLB/OV3, 2) for C[C@@H]1O[C@@H](O[C@@H]2O[C@@H](C(=O)C(C)(C)C)CC3=C2C(=O)c2cc4ccccc4c(O)c2C3=O)C[C@H](NC(=O)C(F)(F)F)[C@@H]1O (mixture of isomers) ?
Result: true

Ask: is_below(VLB/OV3, 2) for CCCCCC1Cc2c(O)c3c(c(O)c2C(O[C@H]2C[C@H](N)[C@H](O)[C@H](C)O2)O1)C(=O)c1ccccc1C3=O (stereo partly shown) ?
Result: true

Ask: is_below(VLB/OV3, 2) for CCOC(=O)[C@@H]1CC2=C(C(=O)c3cc4ccccc4c(O)c3C2=O)[C@@H](O[C@H]2C[C@H](NC(=O)C(F)(F)F)[C@H](O)[C@H](C)O2)O1 ?
Result: true

Ask: is_below(VLB/OV3, 2) for CC(=O)[C@H]1CC2=C(C(=O)c3cc4ccccc4c(O)c3C2=O)[C@H](O[C@@H]2O[C@@H](C)[C@@H](O)[C@@H](O)C2I)O1 (stereo partly shown) ?
Result: true

Ask: is_below(VLB/OV3, 2) for CCOC(=O)C1CC2=C(CO1)C(=O)c1cc3ccccc3c(OC(C)=O)c1C2=O (stereo not shown) ?
Result: true

Ask: is_below(VLB/OV3, 2) for CC(=O)OCC1(C2CC3=C(C(=O)c4cc5ccccc5c(O)c4C3=O)C(O[C@H]3C[C@H](NC(=O)C(F)(F)F)[C@H](O)[C@H](C)O3)O2)OCCCO1 (single isomer, unassigned) ?
Result: true

Ask: is_below(VLB/OV3, 2) for CCN(CC)C(=O)[C@@H]1CC2=C(C(=O)c3cc4ccccc4c(O)c3C2=O)[C@@H](O[C@H]2C[C@H](NC(=O)C(F)(F)F)[C@H](O)[C@H](C)O2)O1 ?
Result: true

Ask: is_below(VLB/OV3, 2) for CC(=O)C1Cc2c(O)c3c(c(O)c2C(OC2CCC(NC(=O)N(CCCl)N=O)CC2)O1)C(=O)c1ccccc1C3=O (stereo not shown) ?
Result: false

###

system: P388; test: Soft agar colony formation disk diffusion assay; type: cell-based, murine; settings: 10 μg/DISK
Assign Yes to entries whose zone of inhibition meets or exceeds 30 Zone Units; assign No to the rest.

Ask: Could you tell me if the measured zone of inhibition of CC(=O)Oc1c2c(c(O)c3ccccc13)C(=O)C1=C(CC(C(C)=O)OC1)C2=O (stereo not shown) reaches 30 Zone Units or more?
Result: Yes

Ask: Could you tell me if the measured zone of inhibition of C=CC1CC2=C(C(=O)c3cc4ccccc4c(O)c3C2=O)C(OC)O1 (stereo not shown) reaches 30 Zone Units or more?
Result: No

Ask: Could you tell me if the measured zone of inhibition of CCOC(=O)C1Cc2c(O)c3c(c(O)c2CS1)C(=O)c1ccccc1C3=O (stereo not shown) reaches 30 Zone Units or more?
Result: No

Ask: Could you tell me if the measured zone of inhibition of COCOCC(=O)C1CC2=C(CO1)C(=O)c1c(cc3ccccc3c1O)C2=O (stereo not shown) reaches 30 Zone Units or more?
Result: No

Ask: Could you tell me if the measured zone of inhibition of COC(=O)[C@H]1CC2=C(C(=O)c3c(cc4ccccc4c3O)C2=O)[C@H](O[C@H]2C[C@H](NC(=O)C(F)(F)F)[C@H](O)[C@H](C)O2)O1 (mixture of isomers) reaches 30 Zone Units or more?
Result: Yes

Ask: Could you tell me if the measured zone of inhibition of CCOC(=O)C1Cc2c(c(OC)c3c(c2OC)C(=O)c2ccccc2C3=O)CS1 (stereo not shown) reaches 30 Zone Units or more?
Result: No

Ask: Could you tell me if the measured zone of inhibition of CCOC(=O)C1CC2=C(CO1)C(=O)c1c(cc3ccccc3c1O)C2=O (stereo not shown) reaches 30 Zone Units or more?
Result: Yes

Ask: Could you tell me if the measured zone of inhibition of CCOC(=O)[C@@H]1CC2=C(C(=O)c3c(c(O)c4ccccc4c3OC(C)=O)C2=O)[C@@H](O)O1 (mixture of isomers) reaches 30 Zone Units or more?
Result: Yes

Ask: Could you tell me if the measured zone of inhibition of COC(=O)[C@@H]1CC2=C(C(=O)c3c(cc4ccccc4c3O)C2=O)[C@@H](O[C@H]2C[C@H](NC(=O)C(F)(F)F)[C@H](O)[C@H](C)O2)O1 reaches 30 Zone Units or more?
Result: Yes

Ask: Could you tell me if the measured zone of inhibition of CCOC(=O)[C@@H]1CC2=C(C(=O)c3cc4ccccc4c(OC(C)=O)c3C2=O)[C@@H](O)O1 (mixture of isomers) reaches 30 Zone Units or more?
Result: No

Ask: Could you tell me if the measured zone of inhibition of CCOC(=O)C1CC2=C(CO1)C(=O)c1c(c(O)c3ccccc3c1OC(C)=O)C2=O (stereo not shown) reaches 30 Zone Units or more?
Result: No

Ask: Could you tell me if the measured zone of inhibition of COC(=O)[C@H]1CC2=C(C(=O)c3c(c(OC)c4ccccc4c3O)C2=O)[C@H](O[C@H]2C[C@H](NC(=O)C(F)(F)F)[C@H](O)[C@H](C)O2)O1 (mixture of isomers) reaches 30 Zone Units or more?
Result: No
